Experimental System: T1, PHF2(1–70), PHD domain of human PHF2 (residues 1–70) (human, UniProt O75151 1-70)
T1 sequence: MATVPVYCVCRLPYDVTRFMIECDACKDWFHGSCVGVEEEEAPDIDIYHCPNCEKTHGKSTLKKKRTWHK
Assay Name: ITC
No end group written: not given here.
Recorded Metric: pKd
# reply with the number alone; pKd is -log10 of concentration in mol/L

Prompt line: # pKd lookup, item ARTK(me3)QTARKSTG [H3(1-12)K4me3 peptide (12-mer of the N-terminal tail of histone H3, trimethylated at lysine 4)]
Response line: 6.19
